Biological target: UniProt P00573
Sequence (P00573 whole entry): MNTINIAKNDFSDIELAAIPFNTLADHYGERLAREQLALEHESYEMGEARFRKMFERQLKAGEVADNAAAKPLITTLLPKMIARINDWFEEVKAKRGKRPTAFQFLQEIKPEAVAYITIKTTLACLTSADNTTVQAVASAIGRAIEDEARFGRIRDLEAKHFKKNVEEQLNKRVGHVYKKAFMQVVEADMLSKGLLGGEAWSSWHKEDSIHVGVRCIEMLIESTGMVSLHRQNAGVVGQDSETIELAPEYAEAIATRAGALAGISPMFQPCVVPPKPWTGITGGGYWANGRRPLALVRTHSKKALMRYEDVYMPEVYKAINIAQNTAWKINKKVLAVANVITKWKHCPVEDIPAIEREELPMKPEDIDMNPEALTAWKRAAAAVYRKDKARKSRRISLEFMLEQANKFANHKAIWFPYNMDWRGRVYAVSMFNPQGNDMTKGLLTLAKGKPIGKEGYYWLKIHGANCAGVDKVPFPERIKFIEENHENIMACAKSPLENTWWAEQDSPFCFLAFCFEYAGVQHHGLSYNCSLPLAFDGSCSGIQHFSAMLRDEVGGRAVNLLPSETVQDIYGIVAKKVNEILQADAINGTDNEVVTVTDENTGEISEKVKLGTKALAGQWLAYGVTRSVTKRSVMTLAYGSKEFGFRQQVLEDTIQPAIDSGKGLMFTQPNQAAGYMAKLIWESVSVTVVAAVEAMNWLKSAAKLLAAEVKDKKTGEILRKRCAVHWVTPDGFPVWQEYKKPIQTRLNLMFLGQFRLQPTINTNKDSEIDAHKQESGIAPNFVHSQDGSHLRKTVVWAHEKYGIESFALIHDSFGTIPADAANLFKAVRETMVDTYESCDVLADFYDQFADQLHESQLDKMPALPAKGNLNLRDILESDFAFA
Assay type: biochemical
Conditions: 20 μL transcription system, Cap1 Analog 4 mM, 37° C. 2 to 3 hours
// returns Criterion not met unless Final product mass obtained from the 20 μL of mRNA transcription system is strictly below 100 µg, in which case Criterion met

Before answering, review these 5 worked examples.
compound	assigned-class
CO[C@@H]1[C@H](OP(=O)([O-])OC[C@H]2O[C@@H](n3cnc4c(=O)[nH]c(N)nc43)[C@H](O)[C@@H]2O)[C@@H](COP(=O)(O)OP(=O)(O)OP(=O)(O)OC[C@H]2O[C@@H](n3c[n+](C)c4c(=O)[nH]c(N)nc43)[C@H](O)[C@@H]2CCO)O[C@H]1n1cnc2c(N)ncnc21	Criterion met
COC[C@H]1[C@@H](O)[C@H](n2c[n+](Cc3ccccc3)c3c(=O)[nH]c(N)nc32)O[C@@H]1COP(=O)(O)OP(=O)(O)OP(=O)(O)OC[C@H]1O[C@@H](n2cnc3c(N)ncnc32)[C@H](OC)[C@@H]1OP(=O)([O-])OC[C@H]1O[C@@H](n2cnc3c(=O)[nH]c(N)nc32)[C@H](O)[C@@H]1O	Criterion met
COC[C@H]1[C@@H](O)[C@H](n2c[n+](C)c3c(=O)[nH]c(N)nc32)O[C@@H]1COP(=O)(O)CP(=O)(O)OP(=O)(O)OC[C@H]1O[C@@H](n2cnc3c(N)ncnc32)[C@H](OC)[C@@H]1OP(=O)(O)OC[C@H]1O[C@@H](n2cnc3c(=O)[nH]c(N)nc32)[C@H](O)[C@@H]1O	Criterion not met
COC[C@H]1[C@@H](OC)[C@H](n2c[n+](C)c3c(=O)[nH]c(N)nc32)O[C@@H]1COP(=O)(O)OP(=O)(O)OP(=O)(O)OC[C@H]1O[C@@H](n2cnc3c(N)ncnc32)[C@H](OC)[C@@H]1OP(=O)(O)OC[C@H]1O[C@@H](n2cnc3c(=O)[nH]c(N)nc32)[C@H](O)[C@@H]1O	Criterion met
COC[C@H]1[C@@H](O)[C@H](n2c[n+](C)c3c(=O)[nH]c(N)nc32)O[C@@H]1COP(=O)(O)OP(=O)(O)CP(=O)(O)OC[C@H]1O[C@@H](n2cnc3c(N)ncnc32)[C@H](OC)[C@@H]1OP(=O)(O)OC[C@H]1O[C@@H](n2cnc3c(=O)[nH]c(N)nc32)[C@H](O)[C@@H]1O	Criterion not met

Confirm or reject: Final product mass obtained from the 20 μL of mRNA transcription system of CO[C@@H]1[C@H](OP(=O)([O-])OC[C@H]2O[C@@H](n3cnc4c(=O)[nH]c(N)nc43)[C@H](O)[C@@H]2O)[C@@H](COP(=O)(O)OP(=O)(O)OP(=O)(O)OC[C@H]2O[C@@H](n3c[n+](C)c4c(=O)[nH]c(N)nc43)[C@H](O)[C@@H]2CNS(C)(=O)=O)O[C@H]1n1cnc2c(N)ncnc21 lies strictly below 100 µg Criterion met

Confirm or reject: Final product mass obtained from the 20 μL of mRNA transcription system of CO[C@@H]1[C@H](OP(=O)([O-])OC[C@H]2O[C@@H](n3cnc4c(=O)[nH]c(N)nc43)[C@H](O)[C@@H]2O)[C@@H](COP(=O)(O)OP(=O)(O)OP(=O)(O)OC[C@H]2OC(n3c[n+](C)c4c(=O)[nH]c(N)nc43)[C@H](O)[C@@H]2CC(=O)N(C)C)O[C@H]1n1cnc2c(N)ncnc21 (stereo partly shown) lies strictly below 100 µg Criterion met
